Reference source: patent US20060264460A1

# target-of-assay: human Cot/Tpl2 kinase (Homo sapiens, UniProt P41279)
# Construct: human Cot/Tpl2 kinase construct encoding residues 30-398; 6His (N); made in house; host or cells: Sf9 insect cells, baculovirus system (BD Biosciences)
# Sequence (P41279 30-398): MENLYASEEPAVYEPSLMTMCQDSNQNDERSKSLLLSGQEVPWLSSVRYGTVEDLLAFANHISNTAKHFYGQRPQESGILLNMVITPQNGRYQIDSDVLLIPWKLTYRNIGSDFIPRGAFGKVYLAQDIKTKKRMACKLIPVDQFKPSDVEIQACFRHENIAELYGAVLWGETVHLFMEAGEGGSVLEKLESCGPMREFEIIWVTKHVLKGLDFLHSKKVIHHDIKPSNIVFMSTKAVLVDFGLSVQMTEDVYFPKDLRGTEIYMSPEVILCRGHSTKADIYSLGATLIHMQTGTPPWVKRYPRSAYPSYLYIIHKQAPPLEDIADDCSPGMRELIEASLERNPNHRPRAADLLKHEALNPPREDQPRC
# protocol-summary: Tpl2/Cot kinase assay: GST-MEK1 phosphorylation detected by ELISA (DELFIA Eu)
# Type: biochemical
# experimental-parameters: 0.4 nM Tpl2, 35 nM GST-MEK1, 50 uM ATP, 1 h at 30° C.
Catalogue of IC50 readings, one per entry.

>  <structure-notation>
Cn1nc(C(C)(C)C)cc1Nc1c(C#N)cnc2ccc(NCc3cnc[nH]3)cc12

>  <value-modifier>
>

>  <IC50 / nM>
40000

$$$$
>  <structure-notation>
N#Cc1cnc2ccc(NCc3cc[nH]n3)cc2c1Nc1ccc(F)c(Cl)c1

>  <value-modifier>
=

>  <IC50 / nM>
74

$$$$
>  <structure-notation>
N#Cc1cnc2c(Cl)cc(NCc3[nH]cnc3CCCO)cc2c1Nc1ccc(F)c(Cl)c1

>  <value-modifier>
=

>  <IC50 / nM>
3.2

$$$$
>  <structure-notation>
N#Cc1cnc2ccc(NCc3ncc[nH]3)cc2c1Nc1ccc(F)c(Cl)c1

>  <value-modifier>
=

>  <IC50 / nM>
30

$$$$
>  <structure-notation>
Cc1cc(N)cc2c(Nc3cccc(Br)c3)c(C#N)cnc12

>  <value-modifier>
=

>  <IC50 / nM>
11000

$$$$
>  <structure-notation>
N#Cc1cnc2ccc(NC(=O)c3cccnc3)cc2c1Nc1ccc(F)c(Cl)c1

>  <value-modifier>
=

>  <IC50 / nM>
23900

$$$$
>  <structure-notation>
Cn1cc(Cl)c(CNc2ccc3ncc(C#N)c(Nc4ccc(F)c(Cl)c4)c3c2)n1

>  <value-modifier>
>

>  <IC50 / nM>
40000

$$$$
>  <structure-notation>
N#Cc1cnc2ccc(NCc3ccc(CO)o3)cc2c1Nc1ccc(F)c(Cl)c1

>  <value-modifier>
=

>  <IC50 / nM>
211

$$$$
>  <structure-notation>
Cc1cc(NCc2cccnc2)cc2c(Nc3cccc(Br)c3)c(C#N)cnc12

>  <value-modifier>
=

>  <IC50 / nM>
3300

$$$$
>  <structure-notation>
N#Cc1cnc2c(Br)cc(NCc3nn[nH]c3-c3ccccc3C(F)(F)F)cc2c1Nc1ccc(F)c(Cl)c1

>  <value-modifier>
=

>  <IC50 / nM>
220

$$$$
>  <structure-notation>
CC(C)(C)OC(=O)N1CCC[C@H]1CNc1ccc2ncc(C#N)c(Nc3ccc(F)c(Cl)c3)c2c1

>  <value-modifier>
=

>  <IC50 / nM>
2400

$$$$
>  <structure-notation>
COCC(=O)NCCn1cc(CNc2cc(Br)c3ncc(C#N)c(Nc4ccc(F)c(Cl)c4)c3c2)nn1

>  <value-modifier>
=

>  <IC50 / nM>
32

$$$$
>  <structure-notation>
N#Cc1cnc2ccc(NCC3CCOCC3)cc2c1Nc1ccc(F)c(Cl)c1

>  <value-modifier>
=

>  <IC50 / nM>
810

$$$$
>  <structure-notation>
N#Cc1cnc2ccc(NCc3nccn3CCN3CCOCC3)cc2c1Nc1ccc(F)c(Cl)c1

>  <value-modifier>
=

>  <IC50 / nM>
68

$$$$
>  <structure-notation>
Cn1ccnc1CNc1ccc2ncc(C#N)c(NC3CCCCCC3)c2c1

>  <value-modifier>
=

>  <IC50 / nM>
380

$$$$
>  <structure-notation>
N#Cc1cnc2c(Cl)cc(NCCc3nnn[nH]3)cc2c1Nc1ccc(F)c(Cl)c1

>  <value-modifier>
=

>  <IC50 / nM>
68

$$$$
>  <structure-notation>
N#Cc1cnc2ccc(NCc3cccc(Br)c3)cc2c1Nc1ccc(F)c(Cl)c1

>  <value-modifier>
=

>  <IC50 / nM>
1600

$$$$
